biological target: human TLR9 (Homo sapiens); assay: TLR9 inhibition reporter assay (HEK-Blue cells, SEAP reporter, ODN2006 stimulation); details: HEK-Blue cells overexpressing human TLR9, SEAP reporter, ODN2006 5 nM
Sequence (Q9NR96 26-1032): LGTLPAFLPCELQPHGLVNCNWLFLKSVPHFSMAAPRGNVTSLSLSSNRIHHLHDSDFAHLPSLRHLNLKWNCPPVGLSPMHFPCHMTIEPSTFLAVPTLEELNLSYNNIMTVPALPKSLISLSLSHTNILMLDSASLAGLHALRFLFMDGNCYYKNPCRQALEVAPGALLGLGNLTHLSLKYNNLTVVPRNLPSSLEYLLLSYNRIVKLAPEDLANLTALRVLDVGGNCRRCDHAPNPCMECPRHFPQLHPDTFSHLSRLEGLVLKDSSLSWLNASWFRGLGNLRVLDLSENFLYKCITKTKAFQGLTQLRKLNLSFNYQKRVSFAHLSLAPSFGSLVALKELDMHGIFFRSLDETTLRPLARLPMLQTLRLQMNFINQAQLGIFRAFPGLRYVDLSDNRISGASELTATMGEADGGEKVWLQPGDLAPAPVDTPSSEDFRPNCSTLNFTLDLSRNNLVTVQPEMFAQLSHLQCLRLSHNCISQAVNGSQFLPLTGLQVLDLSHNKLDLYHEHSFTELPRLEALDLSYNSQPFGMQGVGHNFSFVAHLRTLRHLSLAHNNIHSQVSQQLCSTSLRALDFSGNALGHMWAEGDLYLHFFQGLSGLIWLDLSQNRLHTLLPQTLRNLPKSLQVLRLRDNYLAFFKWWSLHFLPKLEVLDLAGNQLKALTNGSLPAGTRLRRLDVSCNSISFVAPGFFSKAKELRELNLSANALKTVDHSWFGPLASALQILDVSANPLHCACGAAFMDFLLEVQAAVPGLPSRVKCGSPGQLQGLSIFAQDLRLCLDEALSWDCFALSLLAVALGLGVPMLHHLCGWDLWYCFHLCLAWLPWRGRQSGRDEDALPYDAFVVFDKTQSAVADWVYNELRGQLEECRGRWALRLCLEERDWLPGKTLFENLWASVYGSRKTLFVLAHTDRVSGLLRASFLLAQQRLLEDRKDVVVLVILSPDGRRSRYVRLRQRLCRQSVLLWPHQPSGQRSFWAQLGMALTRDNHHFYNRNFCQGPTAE
pIC50: −log10 of the molar value.
PROPERTY_MEASURED: pIC50

Worked examples follow.
compound="COc1ccc(-c2[nH]c3ccc(C4CCCN(CC(=O)N(C)C)C4)cc3c2C(C)C)cc1OC (centres unmarked)" reported_value=5.42
compound="Cc1c(-c2[nH]c3ccc(C4CCC(N(C)C)CC4)cc3c2C(C)C)cn2ncnc2c1C (centres unmarked) [Example 105]" reported_value=5.68
compound="Cc1c(-c2[nH]c3ccc(C4CC(NCC(=O)N(C)C)C4)cc3c2C(C)C)cn2ncnc2c1C (centres unmarked)" reported_value=5.35

I = Cc1c(-c2[nH]c3ccc(C4CN(Cc5c[nH]nn5)C4)cc3c2C(C)C)cn2ncnc2c1C
II = COc1cc(-c2[nH]c3ccc(C4CN(C)CCO4)cc3c2C(C)C)cn2ncnc12 (centres unmarked) [Example 301]
Q: // task: argmin of pIC50 over [ I , II ] Response format: the label of the selected entry.
Result: II
(II: 5.21, I: 5.47)

a = COc1cc(-c2[nH]c3ccc(C4CCC(N(C)C5CC5)CC4)cc3c2C(C)C)cn2ncnc12 (centres unmarked) [Example 12]
b = Cc1c(-c2[nH]c3ccc(C4CC5CN(CC(=O)N(C)C)CC5C4)cc3c2C(C)C)cn2ncnc2c1C (centres unmarked)
Q: a or b : whose pIC50 is greater? Response format: the label of the selected entry.
Result: a
(a: 5.67, b: 5.09)
